# assayedSystem: hNav 1.2 sodium channel isoform (Homo sapiens, UniProt Q99250)
# Construct: expressed in transfected cells
# Sequence (Q99250 whole entry, canonical isoform): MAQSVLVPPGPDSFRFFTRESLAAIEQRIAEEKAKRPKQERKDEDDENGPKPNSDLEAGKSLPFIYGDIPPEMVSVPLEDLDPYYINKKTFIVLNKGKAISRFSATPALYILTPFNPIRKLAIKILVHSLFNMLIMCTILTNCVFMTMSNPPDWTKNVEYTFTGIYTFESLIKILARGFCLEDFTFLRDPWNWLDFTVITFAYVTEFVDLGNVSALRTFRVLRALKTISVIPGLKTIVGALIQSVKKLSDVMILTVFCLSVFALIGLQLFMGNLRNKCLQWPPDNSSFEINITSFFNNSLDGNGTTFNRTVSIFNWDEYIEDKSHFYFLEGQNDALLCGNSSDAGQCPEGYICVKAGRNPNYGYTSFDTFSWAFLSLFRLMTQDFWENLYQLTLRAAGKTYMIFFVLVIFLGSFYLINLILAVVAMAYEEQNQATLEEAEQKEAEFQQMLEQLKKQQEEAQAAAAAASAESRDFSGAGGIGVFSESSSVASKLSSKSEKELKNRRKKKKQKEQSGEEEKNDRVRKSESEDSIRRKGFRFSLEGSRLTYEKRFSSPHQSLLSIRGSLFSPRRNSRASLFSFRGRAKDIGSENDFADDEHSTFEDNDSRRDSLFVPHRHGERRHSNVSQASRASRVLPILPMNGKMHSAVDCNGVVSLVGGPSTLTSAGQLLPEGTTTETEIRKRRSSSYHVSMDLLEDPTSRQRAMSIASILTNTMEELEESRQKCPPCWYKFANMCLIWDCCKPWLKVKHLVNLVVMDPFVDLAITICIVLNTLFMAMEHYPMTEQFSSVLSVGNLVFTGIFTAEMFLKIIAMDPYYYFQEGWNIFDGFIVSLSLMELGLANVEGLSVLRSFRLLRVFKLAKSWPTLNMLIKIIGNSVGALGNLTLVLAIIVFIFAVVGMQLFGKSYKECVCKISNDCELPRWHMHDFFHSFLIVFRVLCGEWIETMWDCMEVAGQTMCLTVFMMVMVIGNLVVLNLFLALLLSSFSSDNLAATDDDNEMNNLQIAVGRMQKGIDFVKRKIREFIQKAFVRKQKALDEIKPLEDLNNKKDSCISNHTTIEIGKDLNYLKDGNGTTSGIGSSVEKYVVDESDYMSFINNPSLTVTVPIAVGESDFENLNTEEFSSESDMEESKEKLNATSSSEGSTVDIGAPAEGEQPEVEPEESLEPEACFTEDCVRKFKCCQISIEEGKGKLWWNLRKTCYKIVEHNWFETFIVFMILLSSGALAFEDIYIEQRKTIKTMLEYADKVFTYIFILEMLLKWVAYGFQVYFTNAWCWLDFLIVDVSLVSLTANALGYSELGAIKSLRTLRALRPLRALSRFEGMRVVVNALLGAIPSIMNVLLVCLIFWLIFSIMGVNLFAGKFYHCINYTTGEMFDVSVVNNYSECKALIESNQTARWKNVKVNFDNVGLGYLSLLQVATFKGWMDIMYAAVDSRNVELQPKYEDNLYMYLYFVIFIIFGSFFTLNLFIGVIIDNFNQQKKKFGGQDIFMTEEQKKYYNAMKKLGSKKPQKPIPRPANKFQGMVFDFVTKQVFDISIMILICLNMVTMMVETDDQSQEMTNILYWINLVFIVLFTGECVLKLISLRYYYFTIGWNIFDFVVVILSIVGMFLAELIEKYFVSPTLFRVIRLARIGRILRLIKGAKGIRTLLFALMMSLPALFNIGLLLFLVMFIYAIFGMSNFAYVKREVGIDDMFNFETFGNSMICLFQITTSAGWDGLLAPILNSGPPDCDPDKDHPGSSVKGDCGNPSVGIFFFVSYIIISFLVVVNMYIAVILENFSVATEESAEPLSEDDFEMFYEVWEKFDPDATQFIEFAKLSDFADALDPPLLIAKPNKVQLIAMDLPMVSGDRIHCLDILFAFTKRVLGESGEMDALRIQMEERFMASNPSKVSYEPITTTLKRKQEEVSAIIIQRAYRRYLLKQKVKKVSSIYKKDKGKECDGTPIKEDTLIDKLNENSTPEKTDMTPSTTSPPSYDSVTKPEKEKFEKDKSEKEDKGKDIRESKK
# protocolDetails: hNav1.2 whole-cell voltage-clamp assay
# Type: cell-based
# testParameters: use-dependent block, 10 Hz, read-out: NAV1.2* UDB-10HZ
readoutKind: inhibition at 1 µM (%)
Kindly provide the numeric value in % only, without the unit symbol.

Exam item: What measured inhibition at 1 µM is associated with CCc1ccc(-c2ccc3c(c2)C(=O)N(Cc2ncccn2)CCO3)cc1 [II-91] on hNav 1.2 sodium channel isoform (Homo sapiens, UniProt Q99250)?
Marked response: -3

Exam item: Enter reported inhibition at 1 µM observed with hNav 1.2 sodium channel isoform (Homo sapiens, UniProt Q99250) for O=C(c1ncccn1)N1CCOc2ccc(-c3ccc(OC(F)(F)F)cc3)cc2C1 [III-1]
Marked response: -3

Exam item: Tell me reported inhibition at 1 µM for COc1cccnc1CN1CCOc2ccc(-c3ccc(OC(F)(F)F)cc3)cc2C1=O [II-143] , tested with hNav 1.2 sodium channel isoform (Homo sapiens, UniProt Q99250).
Marked response: 44

Exam item: Lab request: please report inhibition at 1 µM under test system hNav 1.2 sodium channel isoform (Homo sapiens, UniProt Q99250) for CN1CCOc2ccc(-c3ccc(OC(F)(F)F)cc3)cc2C1=O [II-46]
Marked response: 16

Exam item: hNav 1.2 sodium channel isoform (Homo sapiens, UniProt Q99250) / inhibition at 1 µM / Cc1ccnc(CN2CCOc3cnc(-c4ccc(OC(F)(F)F)cc4)cc3C2=O)n1 [XII-8] : value?
Marked response: 11

Exam item: API: value(readout= inhibition at 1 µM, system= hNav 1.2 sodium channel isoform (Homo sapiens, UniProt Q99250), query= N#Cc1cccc(CN2CCOc3ccc(-c4ccc(OC(F)(F)F)cc4)cc3C2=O)n1 [II-14] )
Marked response: 19

Exam item: Give recorded inhibition at 1 µM with hNav 1.2 sodium channel isoform (Homo sapiens, UniProt Q99250) for the following compound: O=C1c2cc(-c3ccc(Cl)cc3F)ccc2OCCN1Cc1ncccn1 [II-117]
Marked response: -18

Exam item: Give hNav 1.2 sodium channel isoform (Homo sapiens, UniProt Q99250) inhibition at 1 µM for COc1cc(OC)nc(CN2CCOc3ccc(-c4ccc(OC(F)(F)F)cc4)cc3C2=O)n1 [II-42]
Marked response: 12

Exam item: Which measured inhibition at 1 µM belongs to O=C1c2cc(-c3ccc(OC(F)(F)F)cc3)ccc2OCCN1Cc1ncccn1 [II-73] , tested on hNav 1.2 sodium channel isoform (Homo sapiens, UniProt Q99250)?
Marked response: 19

---

Give hERG for every item shown.
# assayedSystem: UniProt Q12809
# Sequence (Q12809 whole entry): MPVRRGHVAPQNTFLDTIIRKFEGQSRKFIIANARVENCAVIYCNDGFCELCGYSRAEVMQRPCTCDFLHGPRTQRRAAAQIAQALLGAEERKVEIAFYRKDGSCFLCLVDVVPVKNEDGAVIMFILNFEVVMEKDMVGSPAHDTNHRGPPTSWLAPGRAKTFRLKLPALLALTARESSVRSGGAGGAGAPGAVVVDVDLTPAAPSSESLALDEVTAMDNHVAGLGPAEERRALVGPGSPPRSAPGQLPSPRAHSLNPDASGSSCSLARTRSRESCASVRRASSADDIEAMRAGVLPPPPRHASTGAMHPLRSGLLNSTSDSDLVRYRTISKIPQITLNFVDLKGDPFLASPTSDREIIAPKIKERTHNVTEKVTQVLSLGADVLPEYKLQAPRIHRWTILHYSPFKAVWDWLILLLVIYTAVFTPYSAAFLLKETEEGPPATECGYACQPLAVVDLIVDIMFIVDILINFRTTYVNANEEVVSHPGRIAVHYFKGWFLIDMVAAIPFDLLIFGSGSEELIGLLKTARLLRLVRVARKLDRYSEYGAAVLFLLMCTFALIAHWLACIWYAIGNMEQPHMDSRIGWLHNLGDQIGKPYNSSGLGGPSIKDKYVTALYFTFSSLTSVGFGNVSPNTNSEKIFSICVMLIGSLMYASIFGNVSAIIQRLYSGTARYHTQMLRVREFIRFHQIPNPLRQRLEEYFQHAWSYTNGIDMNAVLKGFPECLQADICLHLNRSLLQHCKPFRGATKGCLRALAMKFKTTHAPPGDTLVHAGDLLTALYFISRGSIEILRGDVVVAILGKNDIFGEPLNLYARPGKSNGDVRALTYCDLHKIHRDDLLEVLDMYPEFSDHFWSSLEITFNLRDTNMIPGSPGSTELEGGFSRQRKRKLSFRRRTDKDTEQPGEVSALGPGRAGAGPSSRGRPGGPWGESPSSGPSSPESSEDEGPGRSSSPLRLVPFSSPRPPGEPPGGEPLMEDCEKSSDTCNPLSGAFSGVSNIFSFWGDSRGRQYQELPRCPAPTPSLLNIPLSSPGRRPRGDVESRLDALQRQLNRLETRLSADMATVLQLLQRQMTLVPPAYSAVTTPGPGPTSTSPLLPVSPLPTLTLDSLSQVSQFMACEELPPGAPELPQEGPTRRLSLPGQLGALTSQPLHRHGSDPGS
# protocolDetails: hERG screening assay (PatchXpress, CHO cells)
# Type: cell-based
# Parameters: unit not given here
Respond numerically, and do not add a unit to the figure.

Exam item: What hERG value was documented for this molecule, O=C1c2cc(-c3ccc(C(F)(F)F)cc3)ccc2OC[C@H]2CN(CC(F)(F)F)CCN12 ?
Marked response: 21

Exam item: Give its hERG value. Item: O=C1c2cc(-c3ccc(C(F)(F)F)cc3)ccc2OCCN1Cc1cn2ccccc2n1
Marked response: 17

Exam item: Fill in: hERG of O=C1c2cc(-c3ccc(C(F)(F)F)cc3Cl)ccc2OCCN1Cc1ncccn1 is ___
Marked response: 26
